Attribution: the supplement of paper PMC11451515

# System: NOMO1
# measurementNotes: cell viability relative to DMSO control; higher = less cytotoxic
# conditions: RPMI 5 mM glucose + 10% dialyzed FBS; 48 h; 0.569 µM
propertyLabel: cell viability (%)
The answer is to be given in %; state only the numeric part.

Consider the reported cell viability for these compounds:
INSERT INTO measurements (compound, propertylabel, measureunit, observed) VALUES
  ('CC[S+](=O)([O-])Nc1ccc2c(c1)/C(=C(/Nc1ccc(CN3CCCCC3)cc1)c1ccccc1)C(=O)N2', 'cell viability', '%', 63.8),
  ('COc1ccc(C(CN(C)C)C2(O)CCCCC2)cc1 (stereo not drawn)', 'cell viability', '%', 96.4),
  ('CN(C)C1=CC(=CC=C1)C\2=C\3C(=O)N(NC3=C/C(=O)N2C)C4=CC=CC=C4Cl', 'cell viability', '%', 83.4),
  ('C[C@@H]1O[C@@H](O[C@H]2C[C@@H](O)[C@]3(CO)[C@H]4[C@H](O)C[C@]5(C)[C@@H](C6=CC(=O)OC6)CC[C@]5(O)[C@@H]4CC[C@]3(O)C2)[C@H](O)[C@H](O)[C@H]1O', 'cell viability', '%', 11.3),
  ('CCc1cc2c(cc1N1CCC(N3CCOCC3)CC1)C(C)(C)c1[nH]c3cc(C#N)ccc3c1C2=O', 'cell viability', '%', 120),
  ('O=C(Nc1c[nH]nc1-c1nc2cc(CN3CCOCC3)ccc2[nH]1)NC1CC1', 'cell viability', '%', 84),
  ('CC(C)(S)[C@@H](N)C(=O)O', 'cell viability', '%', 108);

Now look at this entry.
# cell viability measured on NOMO1 for item "CCOc1cc2ncc(C#N)c(Nc3ccc(OCc4ccccn4)c(Cl)c3)c2cc1NC(=O)/C=C/CN(C)C" = 83.9

###

# System: SEM cells
# measurementNotes: cell viability relative to DMSO control; higher = less cytotoxic
# conditions: HPLM + 10% dialyzed FBS; 48 h; 0.00702 µM
propertyLabel: cell viability

INSERT INTO results (givensmiles, observed) VALUES
  ('O=C(CCc1ccc(O)cc1)c1c(O)cc(O)cc1O', '92%');

Record "COc1cc(Nc2c(C#N)cnc3cc(OCCCN4CCN(C)CC4)c(OC)cc23)c(Cl)cc1Cl" . Reported cell viability: 114%

Record "ClC1=CC=C2N/C3=N/C(=O)CN3CC2=C1Cl" . Reported cell viability: 120%

Record "c1ccc2c(Cc3c[nH]c4ccccc34)c[nH]c2c1" . Reported cell viability: 97.5%

Record "CN1C(=O)C(=C\C2=C1N=C(NC3=CC=CC(=C3)C(O)=O)N=C2)/C4=C(Cl)C=CC=C4Cl" . Reported cell viability: 108%

Record "CN(C)C1=CC(=CC=C1)C\2=C\3C(=O)N(NC3=C/C(=O)N2C)C4=CC=CC=C4Cl" . Reported cell viability: 111%

Record "CCn1c(-c2nonc2N)nc2c(C#CC(C)(C)O)ncc(OC[C@H]3CCCNC3)c21" . Reported cell viability: 87.2%

Record "COc1cc(CCc2cc(NC(=O)c3ccc(N4C[C@@H](C)N[C@@H](C)C4)cc3)n[nH]2)cc(OC)c1" . Reported cell viability: 131%

Record "CCc1cc2c(cc1N1CCC(N3CCOCC3)CC1)C(C)(C)c1[nH]c3cc(C#N)ccc3c1C2=O" . Reported cell viability: 70.7%

###

# Tested on: NOMO1
# measurementNotes: cell viability relative to DMSO control; higher = less cytotoxic
# conditions: HPLM + 10% dialyzed FBS; 48 h; 0.0632 µM
Reported cell viability values for a set of compounds
The answer is to be given in %; state only the numeric part.

INSERT INTO results (compound, observed) VALUES
  ('CC(C)(F)C[C@H](N[C@@H](c1ccc(-c2ccc([S+](C)(=O)[O-])cc2)cc1)C(F)(F)F)C(=O)NC1(C#N)CC1', 108),
  ('C/C(=N\NC(=S)N1CCC1)c1ccccn1', 20.8),
  ('OC1=CC2=C(C=C1)C(=O)\C(=C(O2)\C3=CC(=C(O)C=C3)O)O', 102),
  ('CCn1c(-c2nonc2N)nc2c(C#CC(C)(C)O)ncc(OC[C@H]3CCCNC3)c21', 73.4);

Record CC\12CCC(=O)\C=C1CCC3C2CCC4(C)C3CCC4(O)C#C (stereo not given) . Reported cell viability: 112

###

Reported AUC of viability dose-response curve values for a set of compounds
# Tested on: P12-Ichikawa
# measurementNotes: AUC of viability dose-response curve (% viability x log10 dose units); higher = less sensitive
# conditions: RPMI 5 mM glucose + 10% dialyzed FBS; 48 h
API note: the answer field is a bare number with no unit suffix.

Consider the reported AUC of viability dose-response curve for these compounds:
INSERT INTO assay_data (compound, observed) VALUES
  ('[O-]C(=O)C/1=N/C(=O)NC(=O)N1', 420),
  ('C[C@@H]1CN(Cc2ccc(F)cc2)[C@@H](C)CN1C(=O)c1cc2c(C(=O)C(=O)N(C)C)cn(C)c2cc1Cl', 471),
  ('CC[S+](=O)([O-])Nc1ccc2c(c1)/C(=C(/Nc1ccc(CN3CCCCC3)cc1)c1ccccc1)C(=O)N2', 297),
  ('COc1cc(CCc2cc(NC(=O)c3ccc(N4C[C@@H](C)N[C@@H](C)C4)cc3)n[nH]2)cc(OC)c1', 414),
  ('CO[C@@]12[C@H](COC(N)=O)C/3=C(N1C[C@@H]4N[C@H]24)/C(=O)/C(=C(N)\C3=O)C', 419),
  ('Cc1c(-c2cccc3c(CCCOc4cccc5ccccc45)c(C(=O)O)n(Cc4cccnc4)c23)c(COc2ccc(N3CCN([S+](=O)([O-])N(C)C)CC3)cc2)nn1C', 418),
  ('COc1ccc(C(=O)N2CCCC2=O)cc1', 439),
  ('C=C1/C(=C/C=C2\CCCC3(C)[C@@H]([C@H](C)/C=C/C=C/C(O)(CC)CC)CC[C@@H]23)C[C@@H](O)C[C@@H]1O (some centres not stated)', 455),
  ('CCc1cc2c(cc1N1CCC(N3CCOCC3)CC1)C(C)(C)c1[nH]c3cc(C#N)ccc3c1C2=O', 451),
  ('CC(C)(O)CCc1ccc(OCc2cc(-c3cccc(OC(F)F)c3)c3ncccc3c2)cc1', 456);

Record "CC(C)N(C[C@H]1O[C@@H](n2cnc3c(N)ncnc32)[C@H](O)[C@@H]1O)[C@H]1C[C@@H](CCc2nc3cc(C(C)(C)C)ccc3[nH]2)C1" . Reported AUC of viability dose-response curve: 383

Record "COc1ccc(OC)c(-c2nnc3ccc(-c4ccc(OC)c(O[C@@H]5CCOC5)c4)nn23)c1" . Reported AUC of viability dose-response curve: 466

Record "CCOc1cc2ncc(C#N)c(Nc3ccc(OCc4ccccn4)c(Cl)c3)c2cc1NC(=O)/C=C/CN(C)C" . Reported AUC of viability dose-response curve: 321

Record "Cc1cn([C@H]2C=C[C@@H](CO)O2)c(=O)[nH]c1=O" . Reported AUC of viability dose-response curve: 474

Record "COc1cc([C@@H](CC(=O)O)c2ccc(C)c(CN3C[C@@H](C)Oc4ccccc4[S+]3(=O)[O-])c2)cc2nnn(C)c12" . Reported AUC of viability dose-response curve: 452

Record "C[C@@H]1O[C@@H](O[C@H]2C[C@@H](O)[C@]3(CO)[C@H]4[C@H](O)C[C@]5(C)[C@@H](C6=CC(=O)OC6)CC[C@]5(O)[C@@H]4CC[C@]3(O)C2)[C@H](O)[C@H](O)[C@H]1O" . Reported AUC of viability dose-response curve: 211

###

Reported cell viability values for a set of compounds
# Test system: NOMO1
# measurementNotes: cell viability relative to DMSO control; higher = less cytotoxic
# conditions: RPMI 5 mM glucose + 10% FBS; 48 h; 0.569 µM
The answer is to be given in %; state only the numeric part.

Consider the reported cell viability for these compounds:
INSERT INTO measurements (compound, propertylabel, observed) VALUES
  ('Cc1nn(C)c(COc2ccc(N3CCN([S+](=O)([O-])N(C)C)CC3)cc2)c1-c1cccc2c(CCCOc3cccc4ccccc34)c(C(=O)O)n(CCN3CCOCC3)c12', 'cell viability', 118),
  ('OC[C@H]1O[C@H](C[C@@H]1O)N2\C=C(F)/C(=O)NC2=O', 'cell viability', 82.6),
  ('C=C1C(=O)[C@@]23C(CC[C@@H]1[C@H]2O)[C@@]12CO[C@]3(O)[C@@H](O)[C@@H]1C(C)(C)CC[C@@H]2O (stereo partly specified)', 'cell viability', 133);

Record "OC1=CC2=C(C=C1)C(=O)\C(=C(O2)\C3=CC(=C(O)C=C3)O)O" . Reported cell viability: 99.7

Record "C[C@H]1C[C@H]2[C@@H]3CC[C@](O)(C(=O)CO)[C@@]3(C)C[C@H](O)[C@@H]2[C@@]\4(C)/C=C\C(=O)\C=C14" . Reported cell viability: 93.1

Record "O=C/1NC(=O)C(=C1C2=CN=C3C=CC=C[N]23)/C4=C[N]5CCN(CC6=C5C4=CC=C6)C(=O)N7CCOCC7" . Reported cell viability: 144

Record "O=C(CC12CC3CC(CC(C3)C1)C2)Nc1cccc2nc(NCCNCCO)ccc12" . Reported cell viability: 81

Record "CN(C)C1=CC(=CC=C1)C\2=C\3C(=O)N(NC3=C/C(=O)N2C)C4=CC=CC=C4Cl" . Reported cell viability: 93

Record "NC(=O)Nc1sc(-c2ccc(F)cc2)cc1C(N)=O" . Reported cell viability: 96.7

Record COc1ccc(C(CN(C)C)C2(O)CCCCC2)cc1 (stereo unspecified) . Reported cell viability: 104

Record "CC(C)=CCC/C(C)=C/CC/C(C)=C/CC/C(C)=C/CC/C(C)=C/CC/C(C)=C/CC/C(C)=C/CC/C(C)=C/CC/C(C)=C/CO" . Reported cell viability: 115

Record "COc1cccc2c1C(=O)c1c(O)c3c(c(O)c1C2=O)C[C@@](O)(C(=O)CO)C[C@@H]3O[C@H]1C[C@H](N)[C@H](O[C@H]2CCCCO2)[C@H](C)O1" . Reported cell viability: 123

Record "C[C@@H]1CN(Cc2ccc(F)cc2)[C@@H](C)CN1C(=O)c1cc2c(C(=O)C(=O)N(C)C)cn(C)c2cc1Cl" . Reported cell viability: 124

Record CC\12CCC(=O)\C=C1CCC3C2CCC4(C)C3CCC4(O)C#C (stereo unspecified) . Reported cell viability: 88.8

Record "CCOC(=O)N1c2ccc(C(F)(F)F)cc2[C@@H](N(Cc2cc(C(F)(F)F)cc(C(F)(F)F)c2)C(=O)OC)C[C@H]1CC" . Reported cell viability: 115

Record "CC(C)=CCC/C(C)=C/CC/C(C)=C/CSc1ccccc1C(=O)O" . Reported cell viability: 96.2
